# ASSAY TARGET: GCase (Homo sapiens)
# Construct: endogenous in cells; host or cells: HeLa cells
# ASSAY EXPLANATION: activation of GCase in a live cell PFB assay in HELA cells
# Format: cell-based
# CONDITION CONTEXT: EC50 given as range classes
PARAMETER: EC50

COMPOUND	EC50
Cc1nn(CC(F)F)c2nc(N3CCC4(CN(c5cnc(C(F)(F)F)nc5)C4)C3)ncc12	10 to 50 µM
O=C1CCC2(CCN(c3cnc4cnn(CC(F)F)c4n3)C2)CN1c1ccc(C(F)(F)F)nc1 (centres unmarked)	< 10 µM
FC(F)Cn1ncc2ncc(N3CCC4(CC3)CN(c3cncc(C(F)(F)F)c3)CCO4)nc21	< 10 µM
FC(F)(F)c1ncc(N2CC3(CCN(c4cncc(-c5nncs5)n4)C3)C2)cn1	< 10 µM
CCc1cnc(C(F)(F)F)cc1N1CC2(CCN(c3cnc4cnn(CC(F)F)c4n3)C2)C1	< 10 µM

For each entry beneath this line, provide reported EC50.
1. O=C1CC2(CN1c1ccc(C(F)(F)F)nc1)C1CC2CN(c2cnc3cnn(CC(F)F)c3n2)C1 (centres unmarked)
2. O=C1N(c2cncc(C(F)(F)F)n2)C(=O)C2(CCN(c3cnc4cnn(CC(F)F)c4n3)CC2)N1Cc1cc(F)cc(F)c1
3. FC(F)(F)c1cnc(N2CCC3(CCN(c4cncc(-c5nncs5)n4)CC3)C2)cn1
4. Cc1nn(CC(F)F)c2nc(N3CCC4(CC3)CCN(c3ccc(C(F)(F)F)nc3)C4=O)ncc12
5. Cc1nc(N2CCC3(CC2)CN(c2cnc4cnn(CC(F)F)c4n2)C3)cc(C(F)(F)F)n1

Found:
50 to 100 µM
< 10 µM
10 to 50 µM
10 to 50 µM
< 10 µM

For each entry beneath this line, provide reported EC50.
1. FC(F)(F)c1ncc(N2CCC3(CCN(c4cncc(-c5nncs5)n4)CC3)C2)cn1
2. CCn1ncc2c(=O)n(C)c(N3CCC4(CN(c5cnc(C(F)(F)F)nc5)C4)C3)nc21
3. O=C1N(c2ccnc(C(F)(F)F)c2)C(=O)C2(CCN(c3cnc4cnn(CC(F)F)c4n3)CC2)N1Cc1cc(F)cc(F)c1
4. FC(F)(F)c1cc(N2CC3(CCN(c4cncc(-c5nnc(C(F)(F)F)s5)n4)C3)C2)ccn1
5. Cc1nn(CC(F)F)c2nc(N3CCC4(CN(c5ccnc(C(F)(F)F)c5)C4)C3)cnc12

Found:
10 to 50 µM
< 10 µM
< 10 µM
< 10 µM
> 100 µM

For each entry beneath this line, provide reported EC50.
1. CCn1c(=O)n(C2COC2)c2nc(N3CCC4(CN(c5ccnc(C(F)(F)F)c5)C4)C3)cnc21
2. FC(F)Cn1ncc2ncc(N3CCCC4(CCN(c5ccnc(C(F)(F)F)c5)CC4)C3)nc21

Found:
["10 to 50 µM", "> 100 µM"]

====

# ASSAY TARGET: GCase (Homo sapiens, UniProt P04062)
# Construct: endogenous in cells; host or cells: HeLa cells
# Sequence (P04062 40-536): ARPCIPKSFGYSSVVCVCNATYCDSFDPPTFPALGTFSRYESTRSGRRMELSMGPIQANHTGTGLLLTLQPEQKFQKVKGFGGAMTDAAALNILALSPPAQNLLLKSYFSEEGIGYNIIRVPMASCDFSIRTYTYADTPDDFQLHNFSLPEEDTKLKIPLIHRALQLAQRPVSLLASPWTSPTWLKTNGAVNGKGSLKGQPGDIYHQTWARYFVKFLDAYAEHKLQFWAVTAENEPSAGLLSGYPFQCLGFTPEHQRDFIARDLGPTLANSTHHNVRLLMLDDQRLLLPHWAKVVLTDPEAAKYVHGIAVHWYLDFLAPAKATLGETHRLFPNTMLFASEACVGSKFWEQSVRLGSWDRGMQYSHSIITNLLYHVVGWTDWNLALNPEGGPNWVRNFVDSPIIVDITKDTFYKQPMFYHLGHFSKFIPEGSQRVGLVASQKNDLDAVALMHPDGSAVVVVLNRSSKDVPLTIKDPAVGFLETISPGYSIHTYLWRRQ
# ASSAY EXPLANATION: activation of GCase in a live cell PFB assay in HELA cells
# Type: cell-based
# CONDITION CONTEXT: EC50 given as range classes
PARAMETER: EC50

Consider the following illustrative entries.
MOLECULE	ASSAY TARGET	EC50
CC1(C)CC2(CCN(c3cnc4cnn(CC(F)F)c4n3)CC2)C(=O)N1c1ccc(C(F)(F)F)nc1	GCase (Homo sapiens, UniProt P04062)	10 to 50 µM
FC(F)Cn1ncc2ncc(NC3CCC4(CC3)CN(c3ccc(C(F)(F)F)nc3)C4)nc21	GCase (Homo sapiens, UniProt P04062)	10 to 50 µM
FC(F)Cn1ncc2ncc(NC3CCC4(CCN(c5cc(C(F)(F)F)ccn5)C4)C3)nc21 (centres unmarked)	GCase (Homo sapiens, UniProt P04062)	< 10 µM

For each entry beneath this line, provide reported EC50.
1. FC(F)(F)c1cc(N2CC3(CCN(c4cncc(-c5nnc(C(F)(F)F)o5)n4)C3)C2)ccn1
2. Cc1nc2cnn(CC(F)F)c2nc1N1CCC2(CCN(c3cc(C(F)(F)F)ccn3)C2)CC1
3. FC(F)Cn1ncc2ncc(N3CCC4(CN(c5cc(C(F)(F)F)ccn5)C4)C3)nc21

Found:
1: 50 to 100 µM; 2: 10 to 50 µM; 3: 10 to 50 µM

For each entry beneath this line, provide reported EC50.
1. Cc1nc(N2CCC3(C2)CN(c2cnc4c(C)nn(CC(F)(F)F)c4n2)C3)cc(C(F)(F)F)n1
2. FC(F)(F)c1ccc(N2CCC3(CCN(c4cncc(-c5nncs5)n4)CC3)C2)nn1
3. Cc1nn(CC(F)F)c2nc(N3CC4(CC3=O)CN(c3ccnc(C(F)(F)F)c3)C4)cnc12
4. FC(F)Cn1ncc2ncc(NC3COC4(C3)CN(c3ccc(C(F)(F)F)nc3)C4)nc21 (centres unmarked)

Found:
10 to 50 µM
10 to 50 µM
< 10 µM
10 to 50 µM

For each entry beneath this line, provide reported EC50.
1. Cc1nc(N2CCC3(CCN(c4cc5c(cn4)cnn5CC(F)F)CC3)C2)cc(C(F)(F)F)n1
2. FC(F)Cn1ncc2ncc(N3CCC4(CN(c5ccnc(OCC(F)(F)F)c5)C4)C3)nc21
3. COc1ncc(N2CCC3(CN(c4cnc(C(F)(F)F)nc4)C3)C2)nc1-c1nncs1
4. FC(F)Cn1ncc2ncc(N3CCC4(CCN(c5cnc(C(F)(F)F)cn5)CC4)CC3)nc21

Found:
1: < 10 µM; 2: 10 to 50 µM; 3: > 100 µM; 4: < 10 µM

====

# ASSAY TARGET: GCase (Homo sapiens, UniProt P04062)
# Construct: endogenous in cells; host or cells: HeLa cells
# ASSAY EXPLANATION: activation of GCase in a live cell PFB assay in HELA cells
# Format: cell-based
# CONDITION CONTEXT: EC50 given as range classes
Please respond with reported EC50 for every item in the list.

For each entry beneath this line, provide reported EC50.
1. Cc1ncc(N2CC3(CCN(c4cnc5c(C)nn(CC(F)(F)F)c5n4)C3)C2)c(C(F)(F)F)n1 [Cmpd 606]
2. Cc1ccccc1C(=O)N1CC2(CCN(c3cnc4cnn(CC(F)F)c4n3)C2)C1 [Cmpd 384]

Found:
1. 50 to 100 µM
2. < 10 µM

====

Please respond with reported pEC50 for every item in the list.
# ASSAY TARGET: GCase (Homo sapiens, UniProt P04062)
# Construct: endogenous in cells; host or cells: HeLa cells
# ASSAY EXPLANATION: activation of GCase in a live cell PFB assay in HELA cells
# Assay type: cell-based
# CONDITION CONTEXT: activation of GCase, EC50 ranges
pEC50: −log10 of the molar value.

Consider the following illustrative entries.
MOLECULE	ASSAY TARGET	RESULT
Cc1nc(N2CC3(CCN(c4cnc5cnn(C6COC6)c5n4)CC3)CC2=O)cc(C(F)(F)F)n1	GCase (Homo sapiens, UniProt P04062)	4.30 to 5.00
O=C1CC2(CCN(c3cnc4cnn(CC(F)F)c4n3)CC2)CN1Cc1ccc(C(F)(F)F)cc1F	GCase (Homo sapiens, UniProt P04062)	> 5.00
CC(C)N1C(=O)N(c2cc(C(F)(F)F)ccn2)C(=O)C12CN(c1cnc3cnn(CC(F)F)c3n1)C2	GCase (Homo sapiens, UniProt P04062)	4.00 to 4.30

For each entry beneath this line, provide reported pEC50.
1. CCC1C(=O)N(c2cc(C(F)(F)F)ccn2)CC12CCN(c1cnc3cnn(CC(F)F)c3n1)CC2 (stereo not drawn)
2. Cc1cc(N2CC3(CCN(c4cnc5c(C)nn(CC(F)F)c5n4)C3)C2)nc(C(F)(F)F)n1
3. Cc1nn(CC(F)F)c2nc(N3CC4(CCN(c5ccnc(C(F)(F)F)c5)C4)C3)ncc12
4. O=C1N(c2cc(C(F)(F)F)ccn2)C(=O)C2(CCN(c3cnc4cnn(CC(F)F)c4n3)CC2)N1CCC1CC1
5. COCCN1CCC2(CCN(c3cnc4cnn(CC(F)F)c4n3)CC2)C1=O

Found:
> 5.00
> 5.00
> 5.00
4.30 to 5.00
4.30 to 5.00

For each entry beneath this line, provide reported pEC50.
1. FC(F)Cn1ncc2ncc(N3CCC4(CCN(c5ccnc(C(F)(F)F)n5)C4)CC3)nc21
2. FC(F)Cn1ncc2ncc(N3CCC4(CCCC4COc4cccc(C(F)(F)F)n4)CC3)nc21 (stereo not drawn)
3. O=C1N(c2cncc(C(F)(F)F)n2)CCC12CCN(c1cnc3cnn(CC(F)(F)F)c3n1)CC2
4. FC(F)Cn1ncc2ncc(N3CCC4(CC3)CCN(c3nccnc3C(F)(F)F)C4)nc21

Found:
1: > 5.00; 2: 4.30 to 5.00; 3: 4.30 to 5.00; 4: 4.30 to 5.00

For each entry beneath this line, provide reported pEC50.
1. CC(C)Cn1ncc2ncc(N3CCC4(CN(c5ccnc(C(F)(F)F)c5)C4)C3)nc21
2. O=C1CC2(CCN(c3cnc4cnn(CC(F)F)c4n3)CC2)CN1Cc1cnc(OCC(F)(F)F)nc1
3. O=C1CC2(CCN(c3cnc4cnn(CC(F)F)c4n3)CC2)CN1Cc1ccc(OC(F)F)cc1
4. FC(F)Cn1ncc2ncc(N3CC4(CCCN(c5ccc(C(F)(F)F)nc5)C4)C3)nc21
5. CC1CC2(CCN1c1cnc3cnn(CC(F)F)c3n1)CC(=O)N(c1cc(C(F)(F)F)ccn1)C2 (stereo not drawn)
6. FC(F)Cn1ncc2ncc(N3CCC4(CCN(c5cc(C(F)(F)F)ccn5)C4)CC3)nc21
7. Cc1nn(CC(F)F)c2nc(N3CCC4(CCN(c5ccnc(C(F)(F)F)c5)C4)C3)cnc12 (stereo not drawn)

Found:
> 5.00
4.30 to 5.00
> 5.00
4.30 to 5.00
4.30 to 5.00
> 5.00
< 4.00

For each entry beneath this line, provide reported pEC50.
1. O=C(c1cccc(OC(F)F)c1)N1CC2(CCN(c3cnc4cnn(CC(F)F)c4n3)C2)C1
2. CC1(C)CC2(CCN(c3cnc4cnn(CC(F)F)c4n3)CC2)C(=O)N1c1cc(C(F)(F)F)ccn1
3. FC(F)Cn1ncc2ncc(N3CCC4(CC3)CC(COc3cccc(C(F)(F)F)n3)C4)nc21
4. O=C1CC2(CN1c1ccnc(C(F)(F)F)c1)C1CC2CN(c2cnc3cnn(CC(F)F)c3n2)C1 (stereo not drawn)
5. CC[C@H]1N(c2cnc(C(F)(F)F)nc2)C[C@]12CCN(c1cnc3cnn(CC(F)F)c3n1)C2
6. CCOc1nn(CC(F)F)c2nc(N3CCC4(CC3)CC(=O)N(c3ccc(C(F)(F)F)nc3)C4)cnc12

Found:
1: > 5.00; 2: 4.30 to 5.00; 3: 4.30 to 5.00; 4: < 4.00; 5: 4.30 to 5.00; 6: > 5.00

For each entry beneath this line, provide reported pEC50.
1. Cc1nn(C2COC2)c2nc(N3CC4(CCN(c5ccnc(C(F)(F)F)c5)C4=O)C3)cnc12
2. COc1cc(N2CCC3(CCN(c4cnc5cnn(CC(F)F)c5n4)CC3)C2=O)nc(C(F)(F)F)c1
3. FC(F)(F)c1ncc(N2CCC3(CCN(c4cncc(-c5nncs5)n4)C3)C2)cn1 (stereo not drawn)
4. FC(F)Cn1ncc2ncc(N3CC4(CCN(c5cc(C(F)(F)F)ccn5)CC4)C3)nc21
5. CCc1nn(C2COC2)c2nc(N3CCC4(CN(c5cc(C(F)(F)F)nc(C)n5)C4)C3)cnc12

Found:
4.30 to 5.00
< 4.00
4.30 to 5.00
> 5.00
4.30 to 5.00
